Taken from patent US20260116921A1.

test-settings: SD rat plasma, 37° C., 20 μM
readout-type: t½: Rat Plasma EDTA (h)

• CC(=O)NCCCC[C@H](NC(=O)[C@](C)(CC(C)C)NC(=O)[C@H](Cc1ccc2ccccc2c1)NC(=O)[C@H](Cc1ccc(OCCN)cc1)NC(=O)[C@H]1NC(=O)[C@H](CCC(N)=O)NC(=O)[C@H](Cc2c[nH]c3c(C)cccc23)NC(=O)[C@H]([C@@H](C)O)NC(=O)[C@H](CC(N)=O)NC(=O)[C@@H](NC(C)=O)C(C)(C)SSC1(C)C)C(=O)N[C@@H](C(=O)NCCC(N)=O)[C@H](C)O [compound 218] = 1
